# system-name: human serum albumin (HSA) (Homo sapiens)
# Construct: purchased Sigma-Aldrich
# Sequence (P02768 25-609): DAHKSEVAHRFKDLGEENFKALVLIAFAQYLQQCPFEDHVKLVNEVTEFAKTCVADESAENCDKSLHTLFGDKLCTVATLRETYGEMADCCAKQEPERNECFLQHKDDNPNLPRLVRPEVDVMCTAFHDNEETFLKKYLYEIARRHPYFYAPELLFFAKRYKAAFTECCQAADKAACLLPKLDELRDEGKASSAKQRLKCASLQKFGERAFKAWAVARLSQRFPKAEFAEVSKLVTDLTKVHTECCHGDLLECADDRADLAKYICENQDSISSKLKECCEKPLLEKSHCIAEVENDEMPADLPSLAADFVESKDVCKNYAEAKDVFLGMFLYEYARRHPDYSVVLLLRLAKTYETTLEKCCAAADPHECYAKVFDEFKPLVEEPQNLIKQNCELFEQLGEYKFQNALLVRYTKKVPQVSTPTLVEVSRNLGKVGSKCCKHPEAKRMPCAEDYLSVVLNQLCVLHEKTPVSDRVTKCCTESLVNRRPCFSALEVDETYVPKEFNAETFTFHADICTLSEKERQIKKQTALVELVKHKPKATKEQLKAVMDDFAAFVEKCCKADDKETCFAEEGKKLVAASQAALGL
# test-name: HSA binding by tryptophan fluorescence quenching
# assay-context: [Ru complex]/[HSA] ratio 0 to 2.4; 0.1 M sodium phosphate pH 7.4
What Kapp (apparent HSA binding constant) was measured for each of the following?

{"molecule": "Cc1cnc2c(ccc3c(C)c(C)cnc32)c1C.Cc1cnc2c(ccc3c(C)c(C)cnc32)c1C.Cc1cnc2c(ccc3c(C)c(C)cnc32)c1C.[Ru+2] [(Me4phen)3, [Ru(Me4phen)3]^2+, reference compound]", "result": "0.12 ± 0.03 × 10^5 (M)^−1"}
{"molecule": "Cc1ccnc(-c2cc(CCCCCCCCCCCCc3ccnc(-c4cc(C)ccn4)c3)ccn2)c1.[Ru+2].c1cnc2c(c1)ccc1cccnc12 [α-phen-12, cis-α-[Ru(phen)(bb12)]^2+]", "result": "0.43 ± 0.17 × 10^5 (M)^−1"}
{"molecule": "Cc1ccnc(-c2cc(CCCCCCCc3ccnc(-c4cc(C)ccn4)c3)ccn2)c1.Cc1cnc2c(ccc3c(C)c(C)cnc32)c1C.[Ru+2] [α-Me4phen-7, cis-α-[Ru(Me4phen)(bb7)]^2+]", "result": "4.6 ± 0.90 × 10^5 (M)^−1"}
{"molecule": "Cc1ccnc(-c2cc(CCCCCCCc3ccnc(-c4cc(C)ccn4)c3)ccn2)c1.[Ru+2].c1cnc2c(c1)ccc1cccnc12 [α-phen-7, cis-α-[Ru(phen)(bb7)]^2+]", "result": "0.10 ± 0.00 × 10^5 (M)^−1"}

As a next step, examine the molecule that follows.
[Q] Answer with reported Kapp (apparent HSA binding constant) of Cc1ccnc(-c2cc(CCCCCCCc3ccnc(-c4cc(C)ccn4)c3)ccn2)c1.O=[N+]([O-])c1cc2cccnc2c2ncccc12.[Ru+2] [α-NO2phen-7, cis-α-[Ru(NO2phen)(bb7)]^2+]
[A] 23.5 ± 4.9 × 10^5 (M)^−1

Hello, the source for this data is paper PMC6287197, in case you need it.
